Reported melting point values for a set of compounds

For orientation, consider the following solved cases.
INSERT INTO assay_data (smiles_record, readout_type, result_value) VALUES
  ('O=C1/C(=C/c2cccc(F)c2)CCC[C@@]12[C@H](c1cccc(F)c1)[C@H]1C[C@@H]3CCCC[C@@H]3N1[C@]21C(=O)Nc2cc(Cl)ccc21', 'melting point', '83 to 84 °C'),
  ('O=C1/C(=C/c2cccc(Br)c2)CCC[C@@]12[C@H](c1cccc(Br)c1)[C@H]1C[C@@H]3CCCC[C@@H]3N1[C@]21C(=O)Nc2cc(Cl)ccc21', 'melting point', '115 to 116 °C');

Field: next compound
Exam item: Query (compound): O=C1/C(=C/c2ccccc2)CCC[C@@]12[C@H](c1ccccc1)[C@H]1C[C@@H]3CCCC[C@@H]3N1[C@]21C(=O)Nc2ccccc21 ; field requested: melting point
Marked response: 70 to 71 °C

----------
readout.type: melting point

Example entries and their recorded answers appear below.
INSERT INTO assay_data (smiles_record, readout_type, result_value) VALUES
  ('Cc1ccc2c(c1)[C@]1(C(=O)N2)N2[C@H](C[C@@H]3CCCC[C@@H]32)[C@@H](c2ccc(C(F)(F)F)cc2)[C@@]12CCC/C(=C\c1ccc(C(F)(F)F)cc1)C2=O', 'melting point', '73 to 74 °C'),
  ('O=C1/C(=C/c2ccc(Br)cc2)CCC[C@@]12[C@H](c1ccc(Br)cc1)[C@H]1C[C@@H]3CCCC[C@@H]3N1[C@]21C(=O)Nc2cc(Cl)ccc21', 'melting point', '97 to 98 °C'),
  ('O=C1/C(=C/c2ccc(F)cc2)CCC[C@@]12[C@H](c1ccc(F)cc1)[C@H]1C[C@@H]3CCCC[C@@H]3N1[C@]21C(=O)Nc2cc(Cl)ccc21', 'melting point', '96 to 97 °C'),
  ('COc1ccc2c(c1)[C@]1(C(=O)N2)N2[C@H](C[C@@H]3CCCC[C@@H]32)[C@@H](c2cccc(F)c2)[C@@]12CCC/C(=C\c1cccc(F)c1)C2=O', 'melting point', '92 to 93 °C');

Read the next record carefully.
Exam item: What value of melting point has been recorded for this entry: COc1ccc2c(c1)[C@]1(C(=O)N2)N2[C@H](C[C@@H]3CCCC[C@@H]32)[C@@H](c2ccccc2)[C@@]12CCC/C(=C\c1ccccc1)C2=O
Marked response: 111 to 122 °C

----------
The reader will find reported melting point values listed item by item below.

Reference set, count: 2
INSERT INTO results (compound, result_value) VALUES
  ('O=C1/C(=C/c2ccccc2)CCC[C@@]12[C@H](c1ccccc1)[C@H]1C[C@@H]3CCCC[C@@H]3N1[C@]21C(=O)Nc2ccc([N+](=O)[O-])cc21 [Compound 4d]', '111 to 122 °C'),
  ('O=C1/C(=C/c2ccccc2)CCC[C@@]12[C@H](c1ccccc1)[C@H]1C[C@@H]3CCCC[C@@H]3N1[C@]21C(=O)Nc2ccc(F)cc21 [Compound 4c]', '70 to 71 °C');

Exam item: # query: melting point of entry O=C1/C(=C/c2ccc(Br)cc2)CCC[C@@]12[C@H](c1ccc(Br)cc1)[C@H]1C[C@@H]3CCCC[C@@H]3N1[C@]21C(=O)Nc2ccc([N+](=O)[O-])cc21 [Compound 4g]
Marked response: 125 to 126 °C

Exam item: Reported melting point for O=C1/C(=C/c2ccc(C(F)(F)F)cc2)CCC[C@@]12[C@H](c1ccc(C(F)(F)F)cc1)[C@H]1C[C@@H]3CCCC[C@@H]3N1[C@]21C(=O)Nc2cc(Cl)ccc21 [Compound 4m] : what is it?
Marked response: 78 to 79 °C

Exam item: Query (compound): O=C1/C(=C/c2cccc(F)c2)CCC[C@@]12[C@H](c1cccc(F)c1)[C@H]1C[C@@H]3CCCC[C@@H]3N1[C@]21C(=O)Nc2ccc([N+](=O)[O-])cc21 [Compound 4i] ; field requested: melting point
Marked response: 107 to 108 °C
